System: Pseudomonas aeruginosa ATCC 27853
Format: cell-based
Non-standard residues stand in square brackets, D forms with d. Residues, ends and D or L forms follow the SMILES beside them. d2Nal = N[C@H](Cc1ccc2ccccc2c1)C(=O)O; d(hLeu) = CC(C)CC[C@@H](N)C(=O)O
Readout kind: MIC Pseudomonas aeruginosa ATCC 27853 (µg/mL)
Enter your answer as a number in µg/mL; do not include the unit.

(Q) MIC Pseudomonas aeruginosa ATCC 27853 lookup needed for CC(=O)N[C@H](CCCNC(=N)N)C(=O)N[C@H](CCCCN)C(=O)N[C@H](CCC(C)C)C(=O)N[C@H](CCC(C)C)C(=O)N[C@H](Cc1ccc2ccccc2c1)C(=O)N[C@H](CCCNC(=N)N)C(=O)N[C@H](CCC(C)C)C(=O)N[C@H](CCCCN)C(=O)N[C@H](Cc1ccc2ccccc2c1)C(=O)N[C@H](CCCNC(=N)N)C(=O)N[C@H](CCCCN)C(N)=O [LV-14] (Ac-[dR][dK][d(hLeu)][d(hLeu)][d2Nal][dR][d(hLeu)][dK][d2Nal][dR][dK]-NH2) , thanks.
(A) 4
